- Tested On: PD-1/PD-L1 (Homo sapiens (Human), UniProt Q9NZQ7)
- Sequence (Q9NZQ7 19-238): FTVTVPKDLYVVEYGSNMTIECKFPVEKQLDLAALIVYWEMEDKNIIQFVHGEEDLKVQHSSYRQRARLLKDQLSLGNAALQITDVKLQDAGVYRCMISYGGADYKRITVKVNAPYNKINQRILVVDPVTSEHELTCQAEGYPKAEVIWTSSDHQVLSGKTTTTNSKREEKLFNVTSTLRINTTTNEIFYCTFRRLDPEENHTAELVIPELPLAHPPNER
- Experimental Protocol: PD-1/PD-L1 biochemical protein-protein interaction assay (ALPHA)
- Assay Conditions: 0.3 nM His tagged PD-L1, 2.5 nM biotinylated Fc-PD-1, 60 minutes at 25° C., read-out: IC50 PD-L1-PD1
Measurement Type: IC50 (nM)

1 = COc1nc(-c2cccc(-c3cccc(-c4cnc(CN[C@H]5C[C@@H](O)C5)c(OC)n4)c3Cl)c2Cl)cnc1CNC[C@@H]1CCC(=O)N1
2 = COc1nc(-c2cccc(-c3cccc(-c4cnc(CN5CC[C@@H](O)C5)c(OC)n4)c3Cl)c2Cl)cnc1CN
3 = COc1nc(-c2cccc(-c3cccc(-c4cnc(CN5CC6(CNC(=O)C6)C5)c(OC)n4)c3Cl)c2Cl)ccc1C1=NCCN1
rank_up(items): orders items by reported IC50 in ascending numerical order. // rank by listing labels in the order requested 3, 1, 2
(3: 0.064 nM, 1: 0.126 nM, 2: 0.515 nM)

---

- Tested On: PD-1/PD-L1 (Homo sapiens (Human), UniProt Q9NZQ7)
- Experimental Protocol: PD-1/PD-L1 biochemical protein-protein interaction assay (ALPHA)
- Assay Conditions: 0.3 nM His tagged PD-L1, 2.5 nM biotinylated Fc-PD-1, 60 minutes at 25° C., read-out: IC50 PD-L1-PD1
pIC50: −log10 of the molar value.
Measurement Type: pIC50

Here is how some molecules turned out for pIC50.
CCNc1nc(-c2cccc(-c3cccc(-c4cnc(CN5CC6(CNC(=O)C6)C5)c(NCC)n4)c3Cl)c2Cl)cnc1CN1CC2(CNC(=O)C2)C1 [compound 67] : 9.53
COc1nc(-c2cccc(-c3cccc(-c4cnc(CN5CC6CC5(CO)C6)c(OC)n4)c3Cl)c2Cl)cnc1CN1CC2CC1(CO)C2 [compound 477] : 9.61
COc1nc(-c2cccc(-c3cccc(-c4cnc(CN5CC6(C5)CN(C(C)=O)C6)c(OC)n4)c3Cl)c2C)cnc1CN1CC2(C1)CN(C(C)=O)C2 [compound 662] : 10.09

I = COc1nc(-c2cccc(-c3cccc(-c4cnc(CN5CC6(CC(O)C6)C5)c(OC)n4)c3Cl)c2Cl)cnc1CNC[C@@H]1CCC(=O)N1 [compound 289]
II = COc1nc(-c2cccc(-c3cccc(-c4cnc(CN5C[C@@H](O)C[C@@H](F)C5)c(OC)n4)c3Cl)c2Cl)cnc1CNC[C@@H]1CCC(=O)N1 [compound 263]
III = COc1nc(-c2cccc(-c3cccc(-c4cnc(CN5C[C@H](O)[C@@H](O)C5)c(OC)n4)c3Cl)c2Cl)cnc1CN1C[C@H](O)[C@@H](O)C1 [compound 526]
rank_up(items): orders items by reported pIC50 in ascending numerical order. Provide the ranking by listing each label in its place in the requested order. II, III, I

---

- Tested On: PD-1/PD-L1 (Homo sapiens (Human))
- Experimental Protocol: PD-1/PD-L1 biochemical protein-protein interaction assay (ALPHA)
- Assay Conditions: 0.3 nM His tagged PD-L1, 2.5 nM biotinylated Fc-PD-1, 60 minutes at 25° C., read-out: IC50 PD-L1-PD1
Measurement Type: IC50 (nM)

COc1nc(-c2cccc(-c3cccc(-c4cnc(CN[C@H]5C[C@](C)(O)C5)c(OC)n4)c3Cl)c2Cl)cnc1CN[C@H]1C[C@](C)(O)C1 [compound 561] : 0.164

P = COc1nc(-c2cccc(-c3cccc(-c4cnc(CN[C@H]5C[C@@H](CO)C5)c(OC)n4)c3Cl)c2Cl)cnc1CN[C@H]1C[C@@H](CO)C1 [compound 150]
Q = CNc1nc(-c2cccc(-c3cccc(-c4cnc(CN5CC(O)C5)c(OC)n4)c3Cl)c2Cl)cnc1CN1CC(O)C1 [compound 60]
Of the two listed items, P and Q , which carries the larger IC50 figure? Write the label of whichever entry you select. P
(P: 0.2 nM, Q: 0.14 nM)
